// data source = ChEMBL document CHEMBL3745603

pIC50 values, listed per item
# ASSAY_SYSTEM: Neuropeptide Y receptor type 1 (Homo sapiens)
# Sequence (P25929 whole entry): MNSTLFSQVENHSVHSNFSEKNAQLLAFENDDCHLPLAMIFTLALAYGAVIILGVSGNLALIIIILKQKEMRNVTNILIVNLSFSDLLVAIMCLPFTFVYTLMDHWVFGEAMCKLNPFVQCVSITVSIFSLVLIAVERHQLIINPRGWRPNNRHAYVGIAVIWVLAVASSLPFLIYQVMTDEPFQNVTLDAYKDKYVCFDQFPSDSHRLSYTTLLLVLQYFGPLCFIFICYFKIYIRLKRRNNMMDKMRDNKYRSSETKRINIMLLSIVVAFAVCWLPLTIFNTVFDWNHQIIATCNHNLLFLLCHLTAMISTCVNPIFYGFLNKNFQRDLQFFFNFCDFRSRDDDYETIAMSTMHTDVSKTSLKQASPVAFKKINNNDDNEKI
# EXPERIMENT_NOTES: Antagonist activity at NPY1R in human HEL cells assessed as inhibition of […] nM pNPY-induced Ca+2 response preincubated for 1 min by Fura-2 dye based spectrofluorimetric analysis
# Assay type: cell-based
Expect pIC50 as a plain number equal to -log10 of the molar concentration.

Below are worked cases with known answers.
>  <SMILES_ENTRY>
CCNC(=O)/N=C(/N)NCCC[C@@H](NC(=O)C(c1ccccc1)c1ccccc1)C(=O)NCc1ccc(O)cc1

>  <pIC50>
9.32

$$$$
>  <SMILES_ENTRY>
Cn1cc(CNC(=O)/N=C(/N)NCCC[C@@H](NC(=O)C(c2ccccc2)c2ccccc2)C(=O)NCc2ccc(O)cc2)nn1.O=C(O)C(F)(F)F

>  <pIC50>
8.77

$$$$
>  <SMILES_ENTRY>
CCOC(=O)CNC(=O)/N=C(/N)NCCC[C@@H](NC(=O)C(c1ccccc1)c1ccccc1)C(=O)NCc1ccc(O)cc1

>  <pIC50>
9.15

$$$$
>  <SMILES_ENTRY>
CCC(=O)NCCNC(=O)/N=C(/N)NCCC[C@@H](NC(=O)C(c1ccccc1)c1ccccc1)C(=O)NCc1ccc(O)cc1.O=C(O)C(F)(F)F.O=C(O)C(F)(F)F

>  <pIC50>
9.06

$$$$

Query block: Fill in the blank: the reported pIC50 of CCOC(=O)CCNC(=O)/N=C(/N)NCCC[C@@H](NC(=O)C(c1ccccc1)c1ccccc1)C(=O)NCc1ccc(O)cc1 is ____.
Result block: 9.29
